- Test: pKa of synthetic acids, used for separation by titration
- Assay type: physicochemical
Endpoint Label: pKa

Briefly, pKa measured for COc1cccc(C2OC(=O)CC2C(=O)O)c1OC (stereo not shown) : ~3.6
